IC50 tested on Epidermal growth factor receptor (Homo sapiens, UniProt P00533): recorded values
Sequence (P00533 whole entry): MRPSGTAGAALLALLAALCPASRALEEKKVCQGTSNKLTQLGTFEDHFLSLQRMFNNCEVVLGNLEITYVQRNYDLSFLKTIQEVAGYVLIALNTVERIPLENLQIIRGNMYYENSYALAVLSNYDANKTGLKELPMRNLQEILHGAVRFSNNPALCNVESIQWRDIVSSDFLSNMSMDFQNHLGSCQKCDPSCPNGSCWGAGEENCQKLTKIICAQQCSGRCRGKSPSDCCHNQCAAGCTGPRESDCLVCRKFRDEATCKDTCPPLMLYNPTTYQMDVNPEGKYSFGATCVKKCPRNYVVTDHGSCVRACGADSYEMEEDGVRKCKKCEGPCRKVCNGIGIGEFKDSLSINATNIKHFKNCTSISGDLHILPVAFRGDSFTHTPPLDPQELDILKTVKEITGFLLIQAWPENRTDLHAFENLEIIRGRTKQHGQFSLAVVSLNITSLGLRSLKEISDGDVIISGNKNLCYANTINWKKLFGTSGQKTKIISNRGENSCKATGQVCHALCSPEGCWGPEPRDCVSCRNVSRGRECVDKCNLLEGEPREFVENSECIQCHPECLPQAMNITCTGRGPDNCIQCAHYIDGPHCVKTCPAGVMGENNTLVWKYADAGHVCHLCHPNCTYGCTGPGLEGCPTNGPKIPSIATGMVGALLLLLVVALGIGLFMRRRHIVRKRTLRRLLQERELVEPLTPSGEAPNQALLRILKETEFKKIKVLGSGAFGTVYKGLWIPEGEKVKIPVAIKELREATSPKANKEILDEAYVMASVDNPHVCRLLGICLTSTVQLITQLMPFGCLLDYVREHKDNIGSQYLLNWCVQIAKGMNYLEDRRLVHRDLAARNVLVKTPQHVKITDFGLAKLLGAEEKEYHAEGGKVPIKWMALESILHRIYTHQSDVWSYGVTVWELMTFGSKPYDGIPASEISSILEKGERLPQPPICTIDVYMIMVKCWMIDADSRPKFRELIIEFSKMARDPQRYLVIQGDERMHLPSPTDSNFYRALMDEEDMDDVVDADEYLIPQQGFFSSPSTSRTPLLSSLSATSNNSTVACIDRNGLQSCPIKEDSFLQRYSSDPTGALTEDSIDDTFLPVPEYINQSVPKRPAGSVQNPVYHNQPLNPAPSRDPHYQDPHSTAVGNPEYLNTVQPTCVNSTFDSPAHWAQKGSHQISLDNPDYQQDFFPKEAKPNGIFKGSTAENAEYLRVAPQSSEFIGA

Reference set (6 entries):
COc1cc(N2CCCC2=O)ccc1Nc1ncc(Cl)c(Nc2ccccc2NC(C)=O)n1: > 1 µM
COc1cc(NC(=O)NC2CCC(=O)CC2)ccc1Nc1ncc(Cl)c(Nc2ccccc2NC(C)=O)n1: > 1 µM
COc1cc(NC(=O)C2CC2)ccc1Nc1ncc(Cl)c(Nc2ccccc2NC(C)=O)n1: 0.617 µM
COc1cc(N2CCCNC2=O)ccc1Nc1ncc(Cl)c(Nc2ccccc2NC(C)=O)n1: > 1 µM
COc1cc(NC(=O)N2CCOCC2)ccc1Nc1ncc(Cl)c(Nc2ccccc2NC(C)=O)n1: > 1 µM
COc1cc(NC(=O)N2CCN(CCO)CC2)ccc1Nc1ncc(Cl)c(Nc2ccccc2NC(C)=O)n1: > 1 µM

# ---- query compound ----
Req: Quick one: IC50 for `COc1cc(NC(=O)N2CCCC2)ccc1Nc1ncc(Cl)c(Nc2ccccc2NC(C)=O)n1` ?
Resp: > 1 µM

* * *

target_desc: ALK tyrosine kinase receptor (Homo sapiens, UniProt Q9UM73, L1196M)
assay_method_text: Inhibition of recombinant human N-terminal GST-tagged ALK (1058 to 1620 residues) cytoplasmic domain L1196M mutant expressed in baculovirus expression system using srctide as substrate incubated for 1 hr by mobility shift assay
# strict inequality: IC50 < 3 nM yields yes (1), everything else yields no (0)

COc1cc(NC(=O)N2CCOCC2)ccc1Nc1ncc(Cl)c(Nc2ccccc2NC(C)=O)n1: yes (1)

Req: Field: below-cutoff. Rule: recorded IC50 strictly less than 3 nM. Subject: `COc1cc(NC(=O)C2CC2)ccc1Nc1ncc(Cl)c(Nc2ccccc2NC(C)=O)n1`
Resp: no (0)

Req: Field: below-cutoff. Rule: recorded IC50 strictly less than 3 nM. Subject: `COc1cc(N2CCCNC2=O)ccc1Nc1ncc(Cl)c(Nc2ccccc2NC(C)=O)n1`
Resp: no (0)

* * *

target_desc: UniProt:P08922
Sequence (P08922 whole entry, the tested form may be a part): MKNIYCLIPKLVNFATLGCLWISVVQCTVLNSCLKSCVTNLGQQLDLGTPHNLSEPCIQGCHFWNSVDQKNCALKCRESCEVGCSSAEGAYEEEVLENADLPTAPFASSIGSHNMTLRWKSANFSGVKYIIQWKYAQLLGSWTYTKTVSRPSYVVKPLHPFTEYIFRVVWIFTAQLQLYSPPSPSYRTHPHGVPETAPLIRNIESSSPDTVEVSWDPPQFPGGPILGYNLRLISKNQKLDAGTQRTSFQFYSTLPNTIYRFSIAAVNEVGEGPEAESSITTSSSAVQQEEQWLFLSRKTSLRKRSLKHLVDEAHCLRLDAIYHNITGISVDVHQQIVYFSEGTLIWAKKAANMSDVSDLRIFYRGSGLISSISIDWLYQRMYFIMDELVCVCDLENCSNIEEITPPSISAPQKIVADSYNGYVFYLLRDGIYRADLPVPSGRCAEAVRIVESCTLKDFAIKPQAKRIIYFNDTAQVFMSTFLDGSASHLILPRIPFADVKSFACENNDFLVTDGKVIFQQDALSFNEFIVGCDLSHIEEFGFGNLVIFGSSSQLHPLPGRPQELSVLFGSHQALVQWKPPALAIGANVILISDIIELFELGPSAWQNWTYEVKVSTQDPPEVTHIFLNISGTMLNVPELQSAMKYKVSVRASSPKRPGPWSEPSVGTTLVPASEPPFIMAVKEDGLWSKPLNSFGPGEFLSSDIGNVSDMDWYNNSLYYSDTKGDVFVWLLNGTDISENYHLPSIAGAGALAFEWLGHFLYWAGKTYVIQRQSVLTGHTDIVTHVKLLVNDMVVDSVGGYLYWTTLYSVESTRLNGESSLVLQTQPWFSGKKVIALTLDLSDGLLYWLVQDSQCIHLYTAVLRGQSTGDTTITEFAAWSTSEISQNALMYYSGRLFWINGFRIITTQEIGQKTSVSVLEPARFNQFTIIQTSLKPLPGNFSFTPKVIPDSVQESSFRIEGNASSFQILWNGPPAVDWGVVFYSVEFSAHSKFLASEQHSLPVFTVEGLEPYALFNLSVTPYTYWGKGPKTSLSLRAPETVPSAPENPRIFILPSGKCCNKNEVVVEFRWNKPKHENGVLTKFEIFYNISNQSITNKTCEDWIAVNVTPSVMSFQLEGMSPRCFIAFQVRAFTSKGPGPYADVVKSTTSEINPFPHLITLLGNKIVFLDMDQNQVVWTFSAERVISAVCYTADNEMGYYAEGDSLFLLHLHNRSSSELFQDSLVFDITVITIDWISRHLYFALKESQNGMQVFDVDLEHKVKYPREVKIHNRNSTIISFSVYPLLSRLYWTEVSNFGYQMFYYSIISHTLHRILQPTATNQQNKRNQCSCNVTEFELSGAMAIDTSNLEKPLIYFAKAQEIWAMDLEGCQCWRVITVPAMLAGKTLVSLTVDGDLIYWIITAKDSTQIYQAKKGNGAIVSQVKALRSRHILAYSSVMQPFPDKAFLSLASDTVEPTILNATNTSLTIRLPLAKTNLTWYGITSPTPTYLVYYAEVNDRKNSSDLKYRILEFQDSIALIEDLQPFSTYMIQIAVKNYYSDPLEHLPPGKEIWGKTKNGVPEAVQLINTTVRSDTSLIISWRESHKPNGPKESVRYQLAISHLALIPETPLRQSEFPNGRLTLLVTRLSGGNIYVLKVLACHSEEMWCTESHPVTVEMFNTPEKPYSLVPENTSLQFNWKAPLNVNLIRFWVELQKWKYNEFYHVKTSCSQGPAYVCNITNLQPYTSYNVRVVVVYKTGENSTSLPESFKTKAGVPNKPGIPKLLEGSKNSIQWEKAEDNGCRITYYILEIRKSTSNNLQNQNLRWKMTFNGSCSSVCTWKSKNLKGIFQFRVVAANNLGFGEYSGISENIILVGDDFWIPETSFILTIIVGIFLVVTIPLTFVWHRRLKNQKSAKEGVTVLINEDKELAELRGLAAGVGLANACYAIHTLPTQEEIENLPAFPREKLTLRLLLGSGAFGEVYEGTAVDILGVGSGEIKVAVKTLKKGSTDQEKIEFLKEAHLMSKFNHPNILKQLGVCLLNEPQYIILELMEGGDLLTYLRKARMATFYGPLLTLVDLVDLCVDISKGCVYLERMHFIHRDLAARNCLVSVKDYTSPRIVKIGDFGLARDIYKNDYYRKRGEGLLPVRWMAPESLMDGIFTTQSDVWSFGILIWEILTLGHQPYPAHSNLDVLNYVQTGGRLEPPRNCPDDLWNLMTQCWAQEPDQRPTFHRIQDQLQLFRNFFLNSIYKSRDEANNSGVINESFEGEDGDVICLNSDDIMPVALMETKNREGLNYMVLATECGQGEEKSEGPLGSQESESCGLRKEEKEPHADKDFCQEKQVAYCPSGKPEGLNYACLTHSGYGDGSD
assay_method_text: Inhibition of recombinant human N-terminal GST-tagged ROS (1883 to 2347 residues) cytoplasmic domain expressed in baculovirus expression system using IRS1 as substrate incubated for 1 hr by mobility shift assay
Let's look at some molecules and their measured IC50.
Answer with a number only, understood to be in nM.

Reference set (5 entries):
COc1cc(NC(=O)N2CCN(CCO)CC2)ccc1Nc1ncc(Cl)c(Nc2ccccc2NC(C)=O)n1: 1.7
COc1cc(NC(=O)NC2CCC(=O)CC2)ccc1Nc1ncc(Cl)c(Nc2ccccc2NC(C)=O)n1: 3.7
COc1cc(N2CCCC2=O)ccc1Nc1ncc(Cl)c(Nc2ccccc2NC(C)=O)n1: 4.4
COc1cc(NC(=O)C2CC2)ccc1Nc1ncc(Cl)c(Nc2ccccc2NC(C)=O)n1: 3.2
COc1cc(N2CCCNC2=O)ccc1Nc1ncc(Cl)c(Nc2ccccc2NC(C)=O)n1: 5.3

Req: Quick one: IC50 for `COc1cc(NC(=O)N2CCCC2)ccc1Nc1ncc(Cl)c(Nc2ccccc2NC(C)=O)n1` ?
Resp: 0.97

Req: Quick one: IC50 for `COc1cc(NC(=O)N2CCOCC2)ccc1Nc1ncc(Cl)c(Nc2ccccc2NC(C)=O)n1` ?
Resp: 0.73

* * *

Tested on: KARPAS-299
assay_method_text: Antiproliferative activity against human KARPAS299 cells assessed as reduction in cell viability incubated for 72 hrs by MTT assay
Type: functional, cell-based
cond: KARPAS-299, 72 h
# strict inequality: IC50 < 400 nM yields True, everything else yields False

Below are worked cases with known answers.
COc1cc(N2CCCNC2=O)ccc1Nc1ncc(Cl)c(Nc2ccccc2NC(C)=O)n1: True
COc1cc(NC(=O)N2CCN(C)CC2)ccc1Nc1ncc(Cl)c(Nc2ccccc2NC(C)=O)n1: True
COc1cc(NC(=O)C2CC2)ccc1Nc1ncc(Cl)c(Nc2ccccc2NC(C)=O)n1: False
COc1cc(NC(=O)NN2CCOCC2)ccc1Nc1ncc(Cl)c(Nc2ccccc2NC(C)=O)n1: True
CCOC(=O)C1=C(Nc2ccc(Nc3ncc(Cl)c(Nc4ccccc4NC(C)=O)n3)c(OC)c2)CCC1: False

Req: Field: below-cutoff. Rule: recorded IC50 strictly less than 400 nM. Subject: `COc1cc(NC(=O)N[C@H]2CC[C@H](C)CC2)ccc1Nc1ncc(Cl)c(Nc2ccccc2NC(C)=O)n1`
Resp: False

Req: Field: below-cutoff. Rule: recorded IC50 strictly less than 400 nM. Subject: `COc1cc(N2CCCC2=O)ccc1Nc1ncc(Cl)c(Nc2ccccc2NC(C)=O)n1`
Resp: True

Req: Field: below-cutoff. Rule: recorded IC50 strictly less than 400 nM. Subject: `COc1cc(NC(=O)NCCCN2CCCC2)ccc1Nc1ncc(Cl)c(Nc2ccccc2NC(C)=O)n1`
Resp: True

* * *

target_desc: Hepatocyte growth factor receptor (Homo sapiens, UniProt P08581)
Sequence (P08581 whole entry, the tested form may be a part): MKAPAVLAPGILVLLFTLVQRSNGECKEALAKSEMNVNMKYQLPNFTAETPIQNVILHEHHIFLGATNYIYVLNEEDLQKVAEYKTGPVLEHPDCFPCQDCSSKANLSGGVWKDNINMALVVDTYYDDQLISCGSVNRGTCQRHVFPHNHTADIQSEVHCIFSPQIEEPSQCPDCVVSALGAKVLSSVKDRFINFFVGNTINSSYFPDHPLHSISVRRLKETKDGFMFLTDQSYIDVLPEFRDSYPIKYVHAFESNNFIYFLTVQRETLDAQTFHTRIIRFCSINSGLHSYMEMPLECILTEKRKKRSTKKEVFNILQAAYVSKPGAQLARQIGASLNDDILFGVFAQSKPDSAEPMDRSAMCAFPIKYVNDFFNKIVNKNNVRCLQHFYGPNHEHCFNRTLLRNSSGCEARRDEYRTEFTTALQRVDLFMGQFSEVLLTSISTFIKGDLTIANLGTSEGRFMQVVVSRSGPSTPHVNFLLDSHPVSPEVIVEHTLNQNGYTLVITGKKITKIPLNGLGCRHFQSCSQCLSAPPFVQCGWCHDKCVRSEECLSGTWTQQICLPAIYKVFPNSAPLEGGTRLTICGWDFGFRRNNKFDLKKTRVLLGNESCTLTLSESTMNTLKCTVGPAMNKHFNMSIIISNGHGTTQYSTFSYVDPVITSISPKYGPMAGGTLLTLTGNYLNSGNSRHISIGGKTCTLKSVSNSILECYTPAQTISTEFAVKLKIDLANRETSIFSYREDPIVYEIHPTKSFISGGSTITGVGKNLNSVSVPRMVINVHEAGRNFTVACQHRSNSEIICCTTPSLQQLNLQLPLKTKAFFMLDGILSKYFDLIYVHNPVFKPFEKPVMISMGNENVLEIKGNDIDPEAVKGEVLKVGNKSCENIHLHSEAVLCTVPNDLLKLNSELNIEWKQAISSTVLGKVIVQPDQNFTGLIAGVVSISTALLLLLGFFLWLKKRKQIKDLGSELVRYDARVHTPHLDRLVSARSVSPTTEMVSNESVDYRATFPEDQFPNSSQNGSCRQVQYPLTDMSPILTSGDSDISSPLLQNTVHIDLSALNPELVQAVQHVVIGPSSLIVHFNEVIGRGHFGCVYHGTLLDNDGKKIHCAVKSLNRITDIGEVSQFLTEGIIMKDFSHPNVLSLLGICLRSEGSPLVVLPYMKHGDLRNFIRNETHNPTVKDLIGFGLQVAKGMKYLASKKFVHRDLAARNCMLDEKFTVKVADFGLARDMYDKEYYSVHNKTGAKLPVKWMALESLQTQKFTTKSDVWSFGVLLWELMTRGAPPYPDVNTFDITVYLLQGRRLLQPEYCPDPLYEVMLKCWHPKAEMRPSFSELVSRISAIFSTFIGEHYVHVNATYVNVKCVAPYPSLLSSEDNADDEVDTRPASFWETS
assay_method_text: Inhibition of recombinant human N-terminal GST-tagged MET (956 to 1390 residues) cytoplasmic domain expressed in baculovirus expression system using Srctide as substrate incubated for 1 hr by mobility shift assay
Let's look at some molecules and their measured IC50.

COc1cc(NC(=O)C2CC2)ccc1Nc1ncc(Cl)c(Nc2ccccc2NC(C)=O)n1: > 1000 nM
COc1cc(N2CCCNC2=O)ccc1Nc1ncc(Cl)c(Nc2ccccc2NC(C)=O)n1: > 1000 nM
COc1cc(NC(=O)NC2CCC(=O)CC2)ccc1Nc1ncc(Cl)c(Nc2ccccc2NC(C)=O)n1: 325 nM

Req: Quick one: IC50 for `COc1cc(NC(=O)N2CCCC2)ccc1Nc1ncc(Cl)c(Nc2ccccc2NC(C)=O)n1` ?
Resp: > 1000 nM

Req: Quick one: IC50 for `COc1cc(NC(=O)N2CCOCC2)ccc1Nc1ncc(Cl)c(Nc2ccccc2NC(C)=O)n1` ?
Resp: > 1000 nM

Req: Quick one: IC50 for `Cc1cc(Nc2ncc(Cl)c(Nc3ccccc3S(=O)(=O)C(C)C)n2)c(OC(C)C)cc1C1CCNCC1` ?
Resp: 271 nM

Req: Quick one: IC50 for `COc1cc(NC(=O)N2CCN(CCO)CC2)ccc1Nc1ncc(Cl)c(Nc2ccccc2NC(C)=O)n1` ?
Resp: > 1000 nM

Req: Quick one: IC50 for `COc1cc(N2CCCC2=O)ccc1Nc1ncc(Cl)c(Nc2ccccc2NC(C)=O)n1` ?
Resp: 532 nM

* * *

target_desc: ALK tyrosine kinase receptor (Homo sapiens, UniProt Q9UM73, G1202R)
assay_method_text: Inhibition of recombinant human N-terminal GST-tagged ALK (1058 to 1620 residues) cytoplasmic domain G1202R mutant using srctide as substrate incubated for 1 hr by mobility shift assay
parameter: pIC50
pIC50 is defined as minus the log10 of a concentration measured in mol/L.

COc1cc(NC(=O)NC2CCC(=O)CC2)ccc1Nc1ncc(Cl)c(Nc2ccccc2NC(C)=O)n1: 8.03

Req: Quick one: pIC50 for `COc1cc(N2CCCNC2=O)ccc1Nc1ncc(Cl)c(Nc2ccccc2NC(C)=O)n1` ?
Resp: 7.99

* * *

Let's look at some molecules and their measured log10 of IC50.
Test system: KARPAS-299
assay_method_text: Antiproliferative activity against human KARPAS299 cells assessed as reduction in cell viability incubated for 72 hrs by MTT assay
Type: functional, cell-based
cond: KARPAS-299, 72 h
Please note: log10 values; quantity IC50; unit nM.

COC(=O)C1=C(Nc2ccc(Nc3ncc(Cl)c(Nc4ccccc4NC(C)=O)n3)c(OC)c2)CCC1: 3.63
COc1cc(NC(=O)N2CC(O)C2)ccc1Nc1ncc(Cl)c(Nc2ccccc2NC(C)=O)n1: 2.43
COc1cc(NC(=O)N2CCCCC2)ccc1Nc1ncc(Cl)c(Nc2ccccc2NC(C)=O)n1: 2.38
COc1cc(NC(=O)NC2CCCC2)ccc1Nc1ncc(Cl)c(Nc2ccccc2NC(C)=O)n1: 2.92
COc1cc(N2CCC2=O)ccc1Nc1ncc(Cl)c(Nc2ccccc2NC(C)=O)n1: 2.82

Req: Which log10 of IC50 is reported with KARPAS-299 for this entry: `COc1cc(NC(=O)NC2CC2)ccc1Nc1ncc(Cl)c(Nc2ccccc2NC(C)=O)n1` ?
Resp: 2.95

Req: Which log10 of IC50 is reported with KARPAS-299 for this entry: `COc1cc(NC(=O)C2CCN(C(=O)OC(C)(C)C)CC2)ccc1Nc1ncc(Cl)c(Nc2ccccc2NC(C)=O)n1` ?
Resp: 2.71

Req: Which log10 of IC50 is reported with KARPAS-299 for this entry: `CCOC(=O)[C@@H]1CCCN(C(=O)Nc2ccc(Nc3ncc(Cl)c(Nc4ccccc4NC(C)=O)n3)c(OC)c2)C1` ?
Resp: 2.77

Req: Which log10 of IC50 is reported with KARPAS-299 for this entry: `COc1cc(N2CCCCC2=O)ccc1Nc1ncc(Cl)c(Nc2ccccc2NC(C)=O)n1` ?
Resp: 2.49

Req: Which log10 of IC50 is reported with KARPAS-299 for this entry: `COc1cc(NC(=O)N2CCN(C(=O)OC(C)(C)C)CC2)ccc1Nc1ncc(Cl)c(Nc2ccccc2NC(C)=O)n1` ?
Resp: 3.05

Req: Which log10 of IC50 is reported with KARPAS-299 for this entry: `COc1cc(NC(=O)N2CCCC2)ccc1Nc1ncc(Cl)c(Nc2ccccc2NC(C)=O)n1` ?
Resp: 2.20

Req: Which log10 of IC50 is reported with KARPAS-299 for this entry: Cc1cc(Nc2ncc(Cl)c(Nc3ccccc3S(=O)(=O)C(C)C)n2)c(OC(C)C)cc1C1CCNCC1 [CERITINIB] ?
Resp: 1.57

Req: Which log10 of IC50 is reported with KARPAS-299 for this entry: `COc1cc(NC(=O)N2CCC(C)CC2)ccc1Nc1ncc(Cl)c(Nc2ccccc2NC(C)=O)n1` ?
Resp: 2.23

Req: Which log10 of IC50 is reported with KARPAS-299 for this entry: `COc1cc(NC(=O)NC2CCN(C(=O)OC(C)(C)C)CC2)ccc1Nc1ncc(Cl)c(Nc2ccccc2NC(C)=O)n1` ?
Resp: 3.01

Req: Which log10 of IC50 is reported with KARPAS-299 for this entry: `CCOC(=O)C1CCN(C(=O)Nc2ccc(Nc3ncc(Cl)c(Nc4ccccc4NC(C)=O)n3)c(OC)c2)CC1` ?
Resp: 2.65

Req: Which log10 of IC50 is reported with KARPAS-299 for this entry: `COc1cc(NC(=O)NC2CCC(=O)CC2)ccc1Nc1ncc(Cl)c(Nc2ccccc2NC(C)=O)n1` ?
Resp: 1.89

Req: Which log10 of IC50 is reported with KARPAS-299 for this entry: `COc1cc(NC(=O)N[C@H]2CC[C@H](O)CC2)ccc1Nc1ncc(Cl)c(Nc2ccccc2NC(C)=O)n1` ?
Resp: 2.53

Req: Which log10 of IC50 is reported with KARPAS-299 for this entry: `COc1cc(NC2CCCC2)ccc1Nc1ncc(Cl)c(Nc2ccccc2NC(C)=O)n1` ?
Resp: 3.02
